# Test system: SF-539 CNS
Where a SMILES comes first, the peptide text is derived from it.
// classify into active, inactive

Solved entries:
compound=COc1ccc(/C(C)=C(\c2ccc(Cl)cc2)c2ccc(OCCN3CCCC3)cc2)cc1F label=inactive
compound=O=C1c2cc3c(cc2-c2c1c1ccc(Cl)cc1c(=O)n2C[C@H](O)[C@@H](O)[C@H](O)CO)OCO3 label=active

Assay result, entry COc1ccc(-c2cnc3ccnn3c2-c2cc(OC)c(OC)c(OC)c2)cc1 — outcome?
inactive

Consider next the compound CC(C)CC(NC(=O)C(CC(C)C)NC(=O)C(Cc1cnc[nH]1)NC(=O)C(C)NC(=O)C(NC(=O)C(C)NC(=O)C(Cc1c[nH]c2ccccc12)NC(=O)C(CCC(=O)O)NC(=O)C(N)Cc1ccccc1)C(C)C)C(N)=O (stereo not drawn) (H-FEWAVAHLL-NH2; configuration not given here) in the same way.
inactive

Next record, please: O=C1OCc2c1cc(F)cc2[N+](=O)[O-]
inactive

###

# Test system: OVCAR-8 ovarian
# ASSAY_INFO: NCI tumour cell line growth inhibition, 48 h
Exercise: for every item that follows, state its recorded TGI.
Numbers only, in µM.

The following compounds have reported results that may help.
compound=C/C(=N\NC(=O)c1cccnc1)c1cccc(/C(C)=N/NC(=O)c2cccnc2)n1 measure=TGI measured_value=19.3
compound=c1cc(OCCN2CCCCCC2)ccc1CNc1ccc2nc(CCC3CCCCC3)[nH]c2c1 measure=TGI measured_value=6.34
compound=CN(C)CCn1c(=O)c2ccc3c4c(nn3CCN(C)C)c3cc(N)ccc3n(c1=O)c24 measure=TGI measured_value=0.454

// each compound listed below needs its TGI
1. Nc1nc(N)c2c(n1)NC(c1ccccc1)CC(/C=C/c1ccc(Cl)cc1)=N2 (stereo unspecified)
2. Cc1ccc2c(=O)cc(-c3cccc4ccccc34)[nH]c2n1
3. CCN(CC)CCOc1ccc(/C(=C(\C)Cc2ccc(OC)cc2)c2ccc(OC(=O)NCc3ccccc3)cc2)cc1
4. COc1cc2nc(Sc3c([N+](=O)[O-])ncn3C)[nH]c2cc1OC
5. CCOC(=O)c1c(-c2ccccc2)[n+](=O)c2ccc(Cl)cc2n1[O-]
6. COc1cc(/C=C/C(=O)c2ccc(Nc3ncnc4ccccc34)cc2)cc(OC)c1

[37.2, 0.305, 5.69, 58, 16.8, 17.1]

###

For each entry below, report its TGI value.
# Test system: HOP-92 NSCLC
# ASSAY_INFO: NCI tumour cell line growth inhibition, 48 h
Where a SMILES comes first, the peptide text is derived from it. [ ]: non-standard residue; d: D form. The star is where a group is joined. ξ: configuration not given here. dThr(3ξ) = CC(O)[C@@H](N)C(=O)O; dNMeL = CN[C@H](CC(C)C)C(=O)O; OBn = c1ccc(CO*)cc1; ξLac = CC(O)C(=O)O

compound=C/C(CC(=O)NNc1ccc([N+](=O)[O-])cc1)=N\Nc1ccc([N+](=O)[O-])cc1 measured_value="28.3 µM"

Hi team, please reply with TGI for each item in this list.
1. CC(C)OCC(O)COc1ccc2ccc(=O)oc2c1 (stereo not drawn)
2. ClC1CCC2OOC1O2 (stereo not drawn)
3. CC(NC(=O)C(N)Cc1ccc(O)cn1)C(=O)O (stereo not drawn)
4. Cc1ccccc1NC(=O)C(=O)C(c1cnc2ccc([N+](=O)[O-])cc2n1)[N+](=O)[O-] (stereo not drawn)

1: > 100 µM; 2: > 100 µM; 3: > 100 µM; 4: > 100 µM

Dear colleague, could you send me TGI for each of the items below? Thanks.
1. COC(=O)C[C@@H]1C(C)(C)[C@@H]2O[C@@]34C[C@@H]2C(=O)[C@]1(C)[C@H]3CC[C@@]1(C)[C@H](c2ccoc2)OC(=O)C[C@]14O
2. C=C1C(=O)O[C@H]2[C@H]1CC/C(COC(=O)CCCCCCCCC(=O)OC/C1=C/CC[C@@]3(C)O[C@H]3[C@H]3OC(=O)C(=C)[C@@H]3CC1)=C\CC[C@@]1(C)O[C@@H]21

1: > 100 µM; 2: 4.38 µM

Answer for every listed entry: what is its TGI? The entries follow.
1. COc1c2c(cc3c1C(O)N1CC[C@]34[C@H]3O[C@H]3[C@H](OC)C[C@@H]14)OCO2 (stereo partly drawn)
2. COC1O[C@@H]2CCN3C(=O)[C@@H](OC(=O)c4ccc([N+](=O)[O-])cc4)[C@H]1C23 (stereo partly drawn)
3. CC(=O)OC(C)[C@@H](NC(=O)[C@@H](CC(C)C)N(C)C(=O)[C@@H]1CCCN1C(=O)C(C)O)C(=O)OCc1ccccc1 (stereo partly drawn) (H-[ξLac]P[dNMeL][dThr(3ξ)](Ac)-OBn)
4. CCOC(=O)/C(=C/c1ccc([N+](=O)[O-])cc1)C(=O)c1ccccc1
5. N[C@H]1CCN(c2c(F)cc3c(=O)c(C(=O)O)cn4c3c2Oc2cc3c(ccc5ccccc53)cc2-4)C1
6. COc1ccc(/C=C(\C#N)c2nc(N)nc(N3N=C(C)CC3(C)C)n2)c(O)c1

["> 100 µM", "> 100 µM", "> 100 µM", "4.45 µM", "6.29 µM", "58.5 µM"]

Please state, for each entry, its recorded TGI.
1. COC(=O)C1Cc2cccc(C)c2C1 (stereo not drawn)
2. O=S(=O)(N=S(c1ccc(Cl)cc1)c1ccc(Cl)cc1)c1ccccc1

1: > 100 µM; 2: > 100 µM

I would be grateful if you could provide TGI for each of the following entries.
1. O=C1/C(=C\C(Cl)=C/c2ccc([N+](=O)[O-])cc2)SC(=S)N1CCc1ccc(O)cc1
2. O=C(O)c1ccc2c(c1Nc1ccccc1)C(=O)c1ccccc1C2=O
3. O=c1[nH]c(-c2cccc(F)c2)nc2ccccc12
4. Nc1nc(N)c2c(n1)NC(c1ccccc1)CC(/C=C/c1ccc(Cl)cc1)=N2 (stereo not drawn)
5. COc1ccc(C(c2ccc(C(C)C)cc(=O)c2O)c2ccc3cccnc3c2O)cc1 (stereo not drawn)
6. CC(=O)OC1CC(O)CC2=CCC3C4CCC(C(C)(O)C(O)CC5COC(=O)C5C)C4(C)CCC3C21C (stereo not drawn)

["3.29 µM", "> 100 µM", "> 72 µM", "18.2 µM", "0.898 µM", "> 25 µM"]

Could you report TGI for every entry in the following list?
1. O=C1C2=Cc3ccccc3OC2(O)Oc2cc(O)ccc21 (stereo not drawn)
2. COc1cc2nc(Sc3c([N+](=O)[O-])ncn3C)[nH]c2cc1OC
3. OCCOCn1cc(Cn2ncc3c(SCc4ccccc4)ncnc32)nn1
4. Cc1oc2c(C)c(O)c3c(c2c1C1(C)OCCO1)C(=O)C=C(Cl)C3=O

1. > 100 µM
2. 45 µM
3. > 100 µM
4. > 100 µM

Required: TGI, one value per compound below.
1. COC(=O)C1(C(=O)OC)CC2c3c(c4ccccc4n3C)CC(C1=O)N2Cc1ccccc1 (stereo not drawn)
2. COc1ccc(/C=C2\CN(Cc3cn(CCCNc4ccnc5cc(Cl)ccc45)nn3)C/C(=C\c3ccc(OC)c(OC)c3)C2=O)cc1OC
3. Cn1c(=O)[nH]c2[nH]c3ccccc3c2c1=O
4. COC(=O)C(C(=O)C(=O)NC1=C(Cl)C(=O)c2ccccc2C1=O)c1csc(-n2nc(-c3ccccc3)cc2-c2ccccc2)n1 (stereo not drawn)

["> 100 µM", "5.19 µM", "> 100 µM", "> 100 µM"]

Give TGI for all compounds that follow.
1. O=[N+]([O-])c1ccc2c(c1)c(N=NC(=S)NC1CCCCC1)c(O)n2CN1CCOCC1
2. O=C(c1cccc(OCc2ccccc2)c1OCc1ccccc1)N1CCSC1=S
3. O=C1c2ccccc2-c2nc3ccc(O)cc3n21

1. 12.9 µM
2. > 100 µM
3. > 100 µM

###

# Test system: COLO 205 colon
Outcomes you can answer with include only these: 1.0 = active, 0.0 = inactive

See these solved cases before continuing.
test_smiles=COc1ccc(-c2cnc3ccnn3c2-c2cc(OC)c(OC)c(OC)c2)cc1 system="COLO 205 colon" label=0.0
test_smiles=COc1cc(/C=C2\CN(C)C/C(=C\c3cc(OC)c(OC)c(OC)c3)C2=O)cc(OC)c1OC system="COLO 205 colon" label=1.0
test_smiles=Cc1c2c(nn1C(=O)c1nn(-c3ccc(Cl)cc3)cc1O)-c1ccccc1CC2 system="COLO 205 colon" label=1.0
test_smiles=COc1cc(/C=C/C(=O)c2ccc(Nc3ncnc4ccccc34)cc2)cc(OC)c1 system="COLO 205 colon" label=0.0
test_smiles=O=C(Nc1n[nH]c2nc(-c3ccco3)ccc12)C1CC1 system="COLO 205 colon" label=0.0

Which outcome was entered for the compound Cn1cccc1-c1cc(-c2cccs2)[nH]c(=O)c1C#N in this test?
0.0

Likewise for CC(=O)O[C@H]1C(=O)O[C@@H]2C[C@H]3C(C)=CC(=O)[C@@H](O)[C@]3(C)[C@H]3[C@@]4(O)OC[C@]32[C@@H]1[C@@H](C)[C@H]4O ?
1.0

What do you have for CCOC(=O)/C(=C/c1ccc([N+](=O)[O-])cc1)C(=O)c1ccccc1 ?
0.0

Now consider COc1ccc(-c2nn(-c3cccc(NC(=O)Nc4ccc(Cl)c(C(F)(F)F)c4)c3)cc2-c2ccncc2)cc1Cl and answer again.
0.0
